Molecular target: BRD2-BD2 (348–455) (Homo sapiens)
Sequence (P25440 348-455): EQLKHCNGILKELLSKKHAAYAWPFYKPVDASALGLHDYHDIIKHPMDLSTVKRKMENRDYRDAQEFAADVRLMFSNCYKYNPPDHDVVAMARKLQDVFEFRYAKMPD
Assay: Isothermal titration calorimetry
Assay type: binding
Conditions: 15 °C, no DMSO in buffer
ITC ΔG, BRD2 BD2 of -40 kJ/mol or higher: true. Under -40 kJ/mol: false.

Examples with answers:
structureString | qualitativeLabel
CC(=O)N1c2ccc(-c3ccoc3)cc2[C@H](NC(=O)OC(C)C)C[C@@H]1C | true
CC(=O)N1c2ccc(-c3ccsc3)cc2[C@H](NC(=O)OC(C)C)C[C@@H]1C | false
CC(=O)N1c2ccc(-c3cc[nH]c3)cc2[C@H](NC(=O)OC(C)C)C[C@@H]1C | false

We now examine a further molecule.
Input line: Reported ITC ΔG, BRD2 BD2 at or above -40 kJ/mol? CC(=O)N1c2ccc(-c3cccs3)cc2[C@H](NC(=O)OC(C)C)C[C@@H]1C
Output line: false
